# method: Antiproliferative activity against human HFL1 cells after 96 hrs by crystal violet assay
# Assay type: cell-based
# condition_context: read-out: ED50
Measured GI50 at 96 h accompanies every entry in the list below.
The figure you give is taken to be in µM; do not add the unit.

Known results for compounds:
[
  {
    "input_smiles": "CC(=O)O[C@@H]1[C@@H](OC(C)=O)[C@H](Oc2ccc(O[C@@H]3OC[C@@H](OC(C)=O)[C@H](OC(C)=O)[C@H]3OC(C)=O)c3ccccc23)OC[C@H]1OC(C)=O",
    "data_value": 15
  },
  {
    "input_smiles": "CC(=O)O[C@@H]1[C@@H](OC(C)=O)[C@H](Oc2ccc3c(O[C@@H]4OC[C@@H](OC(C)=O)[C@H](OC(C)=O)[C@H]4OC(C)=O)cccc3c2)OC[C@H]1OC(C)=O",
    "data_value": 160
  }
]

Record CC(=O)O[C@@H]1[C@@H](OC(C)=O)[C@H](Oc2ccc3cccc(O[C@@H]4OC[C@@H](OC(C)=O)[C@H](OC(C)=O)[C@H]4OC(C)=O)c3c2)OC[C@H]1OC(C)=O . Reported GI50 at 96 h: 135

----------
# Tested on: T-24
# method: Antiproliferative activity against human T24 cells after 96 hrs by crystal violet assay
# Type: functional
# condition_context: T-24, 96 h, read-out: ED50 (the source's name)
Measured EC50 accompanies every entry in the list below.
The figure you give is taken to be in µM; do not add the unit.

[
  {
    "input_smiles": "CC(=O)Oc1ccc2ccccc2c1O[C@@H]1OC[C@@H](OC(C)=O)[C@H](OC(C)=O)[C@H]1OC(C)=O",
    "study_system": "T-24",
    "EC50 [µM]": 170
  }
]

Record CC(=O)Oc1cccc2c(O[C@@H]3OC[C@@H](OC(C)=O)[C@H](OC(C)=O)[C@H]3OC(C)=O)cccc12 . Reported EC50: 170

Record CC(=O)O[C@@H]1[C@@H](OC(C)=O)[C@H](Oc2cc3ccccc3cc2O[C@@H]2OC[C@@H](OC(C)=O)[C@H](OC(C)=O)[C@H]2OC(C)=O)OC[C@H]1OC(C)=O . Reported EC50: 220

Record CC(=O)O[C@@H]1[C@@H](OC(C)=O)[C@H](Oc2cccc3cccc(O[C@@H]4OC[C@@H](OC(C)=O)[C@H](OC(C)=O)[C@H]4OC(C)=O)c23)OC[C@H]1OC(C)=O . Reported EC50: 190

Record CC(=O)Oc1ccc2ccc(O[C@@H]3OC[C@@H](OC(C)=O)[C@H](OC(C)=O)[C@H]3OC(C)=O)cc2c1 . Reported EC50: 190

Record CC(=O)O[C@@H]1[C@@H](OC(C)=O)[C@H](Oc2ccc3ccccc3c2O[C@@H]2OC[C@@H](OC(C)=O)[C@H](OC(C)=O)[C@H]2OC(C)=O)OC[C@H]1OC(C)=O . Reported EC50: 25

Record CC(=O)Oc1ccc2cc(O[C@@H]3OC[C@@H](OC(C)=O)[C@H](OC(C)=O)[C@H]3OC(C)=O)ccc2c1 . Reported EC50: 45

Record CC(=O)Oc1cc(O[C@@H]2OC[C@@H](OC(C)=O)[C@H](OC(C)=O)[C@H]2OC(C)=O)c2ccccc2c1 . Reported EC50: 25

Record CC(=O)Oc1c(O[C@@H]2OC[C@@H](OC(C)=O)[C@H](OC(C)=O)[C@H]2OC(C)=O)ccc2ccccc12 . Reported EC50: 250

Record CC(=O)O[C@@H]1[C@@H](OC(C)=O)[C@H](Oc2ccc3ccc(O[C@@H]4OC[C@@H](OC(C)=O)[C@H](OC(C)=O)[C@H]4OC(C)=O)cc3c2)OC[C@H]1OC(C)=O . Reported EC50: 60

Record CC(=O)Oc1cc2ccccc2cc1O[C@@H]1OC[C@@H](OC(C)=O)[C@H](OC(C)=O)[C@H]1OC(C)=O . Reported EC50: 260

----------
# method: Antiproliferative activity against human HFL1 cells after 96 hrs by crystal violet assay
# Format: cell-based
# condition_context: read-out: ED50
Measured GI50 at 96 h accompanies every entry in the list below.
Report as: number unit

Known results for compounds:
[
  {
    "input_smiles": "CC(=O)Oc1c(O[C@@H]2OC[C@@H](OC(C)=O)[C@H](OC(C)=O)[C@H]2OC(C)=O)ccc2ccccc12",
    "data_value": "110 µM"
  },
  {
    "input_smiles": "CC(=O)Oc1cccc2cccc(O[C@@H]3OC[C@@H](OC(C)=O)[C@H](OC(C)=O)[C@H]3OC(C)=O)c12",
    "data_value": "110 µM"
  },
  {
    "input_smiles": "CC(=O)Oc1cccc2ccc(O[C@@H]3OC[C@@H](OC(C)=O)[C@H](OC(C)=O)[C@H]3OC(C)=O)cc12",
    "data_value": "65 µM"
  }
]

Query compound follows.
Record CC(=O)Oc1cccc2cc(O[C@@H]3OC[C@@H](OC(C)=O)[C@H](OC(C)=O)[C@H]3OC(C)=O)ccc12 . Reported GI50 at 96 h: 100 µM

----------
# method: Antiproliferative activity against human HFL1 cells after 96 hrs by crystal violet assay
# Type: cell-based
# condition_context: read-out: ED50
Measured GI50 at 96 h accompanies every entry in the list below.
The figure you give is taken to be in µM; do not add the unit.

Record CC(=O)Oc1cc2ccccc2cc1O[C@@H]1OC[C@@H](OC(C)=O)[C@H](OC(C)=O)[C@H]1OC(C)=O . Reported GI50 at 96 h: 75

Record CC(=O)O[C@@H]1[C@@H](OC(C)=O)[C@H](Oc2ccc3ccccc3c2O[C@@H]2OC[C@@H](OC(C)=O)[C@H](OC(C)=O)[C@H]2OC(C)=O)OC[C@H]1OC(C)=O . Reported GI50 at 96 h: 5

Record CC(=O)O[C@@H]1[C@@H](OC(C)=O)[C@H](Oc2ccc3cc(O[C@@H]4OC[C@@H](OC(C)=O)[C@H](OC(C)=O)[C@H]4OC(C)=O)ccc3c2)OC[C@H]1OC(C)=O . Reported GI50 at 96 h: 55

Record CC(=O)Oc1cc(O[C@@H]2OC[C@@H](OC(C)=O)[C@H](OC(C)=O)[C@H]2OC(C)=O)cc2ccccc12 . Reported GI50 at 96 h: 60

Record CC(=O)Oc1ccc2cccc(O[C@@H]3OC[C@@H](OC(C)=O)[C@H](OC(C)=O)[C@H]3OC(C)=O)c2c1 . Reported GI50 at 96 h: 80

Record CC(=O)O[C@@H]1[C@@H](OC(C)=O)[C@H](Oc2ccc3ccc(O[C@@H]4OC[C@@H](OC(C)=O)[C@H](OC(C)=O)[C@H]4OC(C)=O)cc3c2)OC[C@H]1OC(C)=O . Reported GI50 at 96 h: 65

Record CC(=O)Oc1ccc2cc(O[C@@H]3OC[C@@H](OC(C)=O)[C@H](OC(C)=O)[C@H]3OC(C)=O)ccc2c1 . Reported GI50 at 96 h: 80

Record CC(=O)O[C@@H]1[C@@H](OC(C)=O)[C@H](Oc2cc3ccccc3cc2O[C@@H]2OC[C@@H](OC(C)=O)[C@H](OC(C)=O)[C@H]2OC(C)=O)OC[C@H]1OC(C)=O . Reported GI50 at 96 h: 30

Record CC(=O)Oc1cccc2c(O[C@@H]3OC[C@@H](OC(C)=O)[C@H](OC(C)=O)[C@H]3OC(C)=O)cccc12 . Reported GI50 at 96 h: 90

----------
Measured Ratio accompanies every entry in the list below.
# System: HFL1
# method: Induction of glycosaminoglycan synthesis priming in human HFL1 cells assessed as ratio of fractions containing free glycosaminoglycan chains in drug to untreated control; note: test concentration or dose not given here
# Format: cell-based

Known results for compounds:
[
  {
    "input_smiles": "CC(=O)Oc1cccc2cccc(O[C@@H]3OC[C@@H](OC(C)=O)[C@H](OC(C)=O)[C@H]3OC(C)=O)c12",
    "study_system": "HFL1",
    "Ratio": 0.8
  },
  {
    "input_smiles": "CC(=O)Oc1cc2ccccc2cc1O[C@@H]1OC[C@@H](OC(C)=O)[C@H](OC(C)=O)[C@H]1OC(C)=O",
    "study_system": "HFL1",
    "Ratio": 2.2
  },
  {
    "input_smiles": "CC(=O)O[C@@H]1[C@@H](OC(C)=O)[C@H](Oc2cccc3c(O[C@@H]4OC[C@@H](OC(C)=O)[C@H](OC(C)=O)[C@H]4OC(C)=O)cccc23)OC[C@H]1OC(C)=O",
    "study_system": "HFL1",
    "Ratio": 5.4
  },
  {
    "input_smiles": "CC(=O)Oc1ccc2cccc(O[C@@H]3OC[C@@H](OC(C)=O)[C@H](OC(C)=O)[C@H]3OC(C)=O)c2c1",
    "study_system": "HFL1",
    "Ratio": 6.2
  }
]

Record CC(=O)O[C@@H]1[C@@H](OC(C)=O)[C@H](Oc2ccc3cccc(O[C@@H]4OC[C@@H](OC(C)=O)[C@H](OC(C)=O)[C@H]4OC(C)=O)c3c2)OC[C@H]1OC(C)=O . Reported Ratio: 11.1

Record CC(=O)O[C@@H]1[C@@H](OC(C)=O)[C@H](Oc2ccc3ccccc3c2O[C@@H]2OC[C@@H](OC(C)=O)[C@H](OC(C)=O)[C@H]2OC(C)=O)OC[C@H]1OC(C)=O . Reported Ratio: 0.8

Record CC(=O)Oc1c(O[C@@H]2OC[C@@H](OC(C)=O)[C@H](OC(C)=O)[C@H]2OC(C)=O)ccc2ccccc12 . Reported Ratio: 1.8
